# System: CAMK2B;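 note: KINOMEscan kinase panel screen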
# recorded conditions: concentration: 1 μM,replicates: in singlicate; n = 1
value type: %Inh (%)
Give bare numbers, in %.

Field: example entries. Status: answers known.
compound	study system	%Inh [%]
Cl.Cl.NC[C@H](Cc1ccc(C(F)(F)F)cc1)NC(=O)c1cc(Br)c(-c2ccnc3[nH]ccc23)s1	CAMK2B	0
Cl.Oc1cc(-c2nc(-c3ccccc3)[nH]c2-c2ccncc2)ccc1Cl	CAMK2B	0
Cl.Cl.NC[C@H](CC1CCCCC1)NC(=O)c1cc(Br)c(-c2ccnc3[nH]ccc23)s1	CAMK2B	0
CN(C)CC(O)COc1ccc(Nc2nccc(-c3cnn4nc(N5CCOCC5)ccc34)n2)cc1 (centres unmarked)	CAMK2B	25
Cl.Cl.Nc1nc(-c2ccc3c(N)n[nH]c3c2)cc(N2CCCC(NC(=O)c3ccccc3)C2)n1 (centres unmarked)	CAMK2B	0

Parameter requested: %Inh. Apply to each item below.
1. O=C(NCCCN1CCOC1=O)c1cnc(NCc2cc(Cl)ccc2Cl)nc1NC1CCCC1
2. CCN(CC)CCOc1ccc(Nc2ncc3cc(-c4c(Cl)cccc4Cl)c(=O)n(C)c3n2)cc1
3. Cc1occc1-c1nc(N)c(OC[C@@H](N)Cc2c[nH]c3ccccc23)cc1-c1cc2c(C)n[nH]c2cn1

A)
1: 2; 2: 0; 3: 47

Parameter requested: %Inh. Apply to each item below.
1. C=CC(=O)Nc1cc2c(Nc3ccc(F)c(Cl)c3)ncnc2cc1OCCCN1CCOCC1
2. Cc1ccc(-n2nc(C(C)(C)C)cc2NC(=O)Nc2ccc(OCCN3CCOCC3)c3ccccc23)cc1
3. Cc1n[nH]c2ccc(-c3cc(OC[C@@H](N)Cc4ccccc4)cnc3-c3ccoc3)cc12.O=C(O)C(F)(F)F.O=C(O)C(F)(F)F

A)
1: 0; 2: 13; 3: 0

Parameter requested: %Inh. Apply to each item below.
1. O=C(NCCNc1ccnc(NCc2ccc(F)cc2)n1)c1cc2ccccc2s1
2. CCn1c(-c2nonc2N)nc2c(C#CC(C)(C)O)nc(OCCN)cc21.Cl.Cl
3. COc1ccc(C[C@@H](CN)NC(=O)c2cc(Br)c(-c3ccnc4[nH]ccc34)s2)cc1.Cl.Cl
4. Cc1cc(C(=O)Nc2ccc(Oc3ccc4nc(NC(=O)C5CC5)cn4n3)cc2)nn1-c1ccccc1
5. CC(C)Nc1cc(-c2ccc3c(N)n[nH]c3c2)nc(N)n1
6. CN(C)CCOc1ccc(-c2cc(-c3c[nH]nc3-c3ccccn3)ccn2)cc1

A)
1: 0; 2: 0; 3: 0; 4: 0; 5: 0; 6: 0
